// reported Combination Indices at % HIV Inhibition (Confidence Interval) 90% for each item listed
System: HIV-1 LAI
Assay: microbe, parasite or virus in culture
Details: Compound 1 + named drug, EC50 ratio 2.5:1 (Compound 1:comparator); 95% confidence interval in parentheses
ATTRIBUTE_MEASURED: Combination Indices at % HIV Inhibition (Confidence Interval) 90%

| SMILES_RECORD | RESULT |
| --- | --- |
| CC(C)Nc1cccnc1N1CCN(C(=O)c2cc3cc(NS(C)(=O)=O)ccc3[nH]2)CC1 | 0.34 (0.17, 0.50) |
| c1cc(CN2CCCNCCNCCCNCC2)ccc1CN1CCCNCCNCCCNCC1 | 0.77 (0.24, 1.31) |
| Cc1cn([C@H]2C[C@H](N=[N+]=[N-])[C@@H](CO)O2)c(=O)[nH]c1=O | 0.66 (0.28, 1.05) |
| CC(C)CN(C[C@@H](O)[C@H](Cc1ccccc1)NC(=O)O[C@H]1CCOC1)S(=O)(=O)c1ccc(N)cc1 | 1.33 (0.42, 2.25) |
| Nc1ccn([C@H]2CC[C@@H](CO)O2)c(=O)n1 | 0.14 (0.12, 0.17) |
| Cc1ccnc2c1NC(=O)c1cccnc1N2C1CC1 | 1.71 (1.09, 2.33) |
| CC(C)(C)NC(=O)[C@@H]1C[C@@H]2CCCC[C@@H]2CN1C[C@@H](O)[C@H](Cc1ccccc1)NC(=O)[C@H](CC(N)=O)NC(=O)c1ccc2ccccc2n1 | 0.90 (0.58, 1.22) |

Ref: patent US7776863B2
